- PROCEDURE_SUMMARY: Small angle X-ray scattering of multilamellar vesicles, electron density profiles
- Format: physicochemical
- CONDITIONS: PC/PG (9/1) MLVs, peptide/lipid 1/20 (w/w), 20°C; peptide-free 2.23
Below, each entry is listed with its recorded dwater (thickness of the hydration layer), Ld1 phase.
PARAMETER_MEASURED: dwater (thickness of the hydration layer), Ld1 phase (nm)

SUBSTANCE | UNIT_STRING | OBSERVED_RESULT
RQIKIWFQNRRMKWKK-NH2 [pAntp, Penetratin, cell-penetrating peptide, basic, non-amphipathic, 16 residues, reference compound] | nm | 2.28
RRLRRLLRRLLRRLRR-Bi [RL16, secondary amphipathic polyarginine-leucine peptide with biotin (Bi) on N-terminus] | nm | 2.27
RRWWRRWRR-NH2 [RW9, short secondary amphipathic polyarginine-tryptophane peptide, free N-terminal amino group] | nm | 2.33
RPKPQQFFGLM-NH2 [SP, Substance P, neuromodulator, primary amphipathic peptide, free N-terminal amino group, reference compound] | nm | 2.34
RRWRRWWRRWWRRWRR-Bi [RW16, secondary amphipathic polyarginine-tryptophane peptide with biotin (Bi) on N-terminus] | nm | 2.25

====

- PROCEDURE_SUMMARY: Small angle X-ray scattering of multilamellar vesicles, electron density profiles
- Type: physicochemical
- CONDITIONS: PC/PG (9/1) MLVs, peptide/lipid 1/20 (w/w), 5 mM HEPES pH 7.4, 20°C
Below, each entry is listed with its recorded S^−1 (repeat distance), Ld1 phase.
PARAMETER_MEASURED: S^−1 (repeat distance), Ld1 phase (nm)

SUBSTANCE | PARAMETER_MEASURED | OBSERVED_RESULT
RRWWRRWRR-NH2 [RW9, short secondary amphipathic polyarginine-tryptophane peptide, free N-terminal amino group] | S^−1 (repeat distance), Ld1 phase | 5.96
RQIKIWFQNRRMKWKK-NH2 [pAntp, Penetratin, cell-penetrating peptide, basic, non-amphipathic, 16 residues, reference compound] | S^−1 (repeat distance), Ld1 phase | 6.06
RRLRRLLRRLLRRLRR-Bi [RL16, secondary amphipathic polyarginine-leucine peptide with biotin (Bi) on N-terminus] | S^−1 (repeat distance), Ld1 phase | 6.20
RRWRRWWRRWWRRWRR-Bi [RW16, secondary amphipathic polyarginine-tryptophane peptide with biotin (Bi) on N-terminus] | S^−1 (repeat distance), Ld1 phase | 6.08
RPKPQQFFGLM-NH2 [SP, Substance P, neuromodulator, primary amphipathic peptide, free N-terminal amino group, reference compound] | S^−1 (repeat distance), Ld1 phase | 5.96

====

- Tested on: CHO cells
- PROCEDURE_SUMMARY: Cytotoxicity, CCK8 cell counting kit
- Type: cell-based
- CONDITIONS: after 48 hours of incubation of CHO cells with 10 µM peptides, CCK8, DMEM plus 10 % FCS, 37°C
PARAMETER_MEASURED: Lethality (%)

SUBSTANCE | OBSERVED_RESULT
RRLRRLLRRLLRRLRR-Bi [RL16, secondary amphipathic polyarginine-leucine peptide with biotin (Bi) on N-terminus] | 55
RRWRRWWRRWWRRWRR-Bi [RW16, secondary amphipathic polyarginine-tryptophane peptide with biotin (Bi) on N-terminus] | 0
RRRRRRRRR-NH2 [R9, Polyarginine, cell-penetrating peptide, nine arginines, free N-terminal amino group, reference compound] | 0

====

- PROCEDURE_SUMMARY: Calcein leakage from LUVs
- CONDITIONS: peptide/lipid ratio of 1/2; LUVs PC/PG/[14C]PC 9/1/0.01, 70 mM calcein, HEPES 10 mM pH 7.4, 5 min after peptide addition, 25°C, fluorescence, relative to lysis with 1% Triton X-100
Below, each entry is listed with its recorded Calcein release.
PARAMETER_MEASURED: Calcein release (%)

SUBSTANCE | UNIT_STRING | OBSERVED_RESULT
RRLRRLLRRLLRRLRR-Bi [RL16, secondary amphipathic polyarginine-leucine peptide with biotin (Bi) on N-terminus] | % | 38
RQIKIWFQNRRMKWKK-NH2 [pAntp, Penetratin, cell-penetrating peptide, basic, non-amphipathic, 16 residues, reference compound] | % | 11
RPKPQQFFGLM-NH2 [SP, Substance P, neuromodulator, primary amphipathic peptide, free N-terminal amino group, reference compound] | % | 8
RRRRRRRRR-NH2 [R9, Polyarginine, cell-penetrating peptide, nine arginines, free N-terminal amino group, reference compound] | % | 8
RRWWRRWRR-NH2 [RW9, short secondary amphipathic polyarginine-tryptophane peptide, free N-terminal amino group] | % | 7
RRWRRWWRRWWRRWRR-Bi [RW16, secondary amphipathic polyarginine-tryptophane peptide with biotin (Bi) on N-terminus] | % | 14

====

- PROCEDURE_SUMMARY: Small angle X-ray scattering of multilamellar vesicles, electron density profiles
- Format: physicochemical
- CONDITIONS: PC/PG (9/1) MLVs, peptide/lipid 1/20 (w/w), 20°C; peptide-free 2.19
Below, each entry is listed with its recorded dwater (thickness of the hydration layer), Ld2 phase.
PARAMETER_MEASURED: dwater (thickness of the hydration layer), Ld2 phase

SUBSTANCE | OBSERVED_RESULT
RRWWRRWRR-NH2 [RW9, short secondary amphipathic polyarginine-tryptophane peptide, free N-terminal amino group] | 2.19 nm
RRWRRWWRRWWRRWRR-Bi [RW16, secondary amphipathic polyarginine-tryptophane peptide with biotin (Bi) on N-terminus] | 2.18 nm
RPKPQQFFGLM-NH2 [SP, Substance P, neuromodulator, primary amphipathic peptide, free N-terminal amino group, reference compound] | 2.21 nm
RQIKIWFQNRRMKWKK-NH2 [pAntp, Penetratin, cell-penetrating peptide, basic, non-amphipathic, 16 residues, reference compound] | 2.31 nm
RRLRRLLRRLLRRLRR-Bi [RL16, secondary amphipathic polyarginine-leucine peptide with biotin (Bi) on N-terminus] | 2.26 nm

====

- PROCEDURE_SUMMARY: Small angle X-ray scattering of multilamellar vesicles, electron density profiles
- Assay type: physicochemical
- CONDITIONS: PC/PG (9/1) MLVs, peptide/lipid 1/20 (w/w), 20°C; peptide-free 3.90
- Protocol: Briefly, samples for SAXS examination were prepared by dissolving dry lipids in chloroform/methanol (2/1, vol/vol) and mixing to obtain the indicated proportions. The solvent was subsequently evaporated under a stream of oxygen-free dry nitrogen at 45°C and traces of solvent removed by a storage under high vacuum for 2 days. […] The temperature was monitored by a thermocouple (Quad Service, Poissy, France) inserted directly into the lipid dispersion. […]
PARAMETER_MEASURED: dbilayer (thickness of the membrane bilayer), Ld1 phase (nm)

SUBSTANCE | UNIT_STRING | OBSERVED_RESULT
RPKPQQFFGLM-NH2 [SP, Substance P, neuromodulator, primary amphipathic peptide, free N-terminal amino group, reference compound] | nm | 3.62
RRWRRWWRRWWRRWRR-Bi [RW16, secondary amphipathic polyarginine-tryptophane peptide with biotin (Bi) on N-terminus] | nm | 3.83
RQIKIWFQNRRMKWKK-NH2 [pAntp, Penetratin, cell-penetrating peptide, basic, non-amphipathic, 16 residues, reference compound] | nm | 3.78
RRLRRLLRRLLRRLRR-Bi [RL16, secondary amphipathic polyarginine-leucine peptide with biotin (Bi) on N-terminus] | nm | 3.93
RRWWRRWRR-NH2 [RW9, short secondary amphipathic polyarginine-tryptophane peptide, free N-terminal amino group] | nm | 3.63
